Source: patent US20220402995A1

molecular target: T1, VLP2 (virus-like particles of AAV2) (AAV2, UniProt P03135 1-735; P03135 1-598; P03135 1-533); test: ELISA on VLP2; binding after pH 10.0 41.2°C 15 min / untreated
T1 construct: Empty AAV2 capsid; background says about 60 protein molecules, VP1:VP2:VP3 = 1:1:10; Immobilised on the ELISA plate
T1 sequence (P03135 whole entry, chain 1 of 3): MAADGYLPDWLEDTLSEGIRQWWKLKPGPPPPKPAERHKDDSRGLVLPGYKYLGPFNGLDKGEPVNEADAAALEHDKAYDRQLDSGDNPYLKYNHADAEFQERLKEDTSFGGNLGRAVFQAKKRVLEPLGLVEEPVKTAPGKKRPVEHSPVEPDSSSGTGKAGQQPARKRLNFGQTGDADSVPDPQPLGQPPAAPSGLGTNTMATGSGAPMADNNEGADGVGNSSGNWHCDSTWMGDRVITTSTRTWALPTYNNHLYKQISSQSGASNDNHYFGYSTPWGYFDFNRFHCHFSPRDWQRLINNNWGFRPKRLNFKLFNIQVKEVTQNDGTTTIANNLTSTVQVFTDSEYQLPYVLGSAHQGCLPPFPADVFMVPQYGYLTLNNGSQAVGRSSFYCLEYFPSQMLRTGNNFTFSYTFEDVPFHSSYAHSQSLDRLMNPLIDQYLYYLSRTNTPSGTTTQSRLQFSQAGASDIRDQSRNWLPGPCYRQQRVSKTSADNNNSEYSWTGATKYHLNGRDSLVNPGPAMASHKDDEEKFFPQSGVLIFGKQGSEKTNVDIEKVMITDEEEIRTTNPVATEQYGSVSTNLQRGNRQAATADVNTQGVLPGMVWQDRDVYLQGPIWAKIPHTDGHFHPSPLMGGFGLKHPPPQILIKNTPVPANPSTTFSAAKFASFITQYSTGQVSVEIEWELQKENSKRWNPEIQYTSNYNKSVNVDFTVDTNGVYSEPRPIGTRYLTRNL
T1 sequence (P03135 139-735, tags left off, chain 2 of 3): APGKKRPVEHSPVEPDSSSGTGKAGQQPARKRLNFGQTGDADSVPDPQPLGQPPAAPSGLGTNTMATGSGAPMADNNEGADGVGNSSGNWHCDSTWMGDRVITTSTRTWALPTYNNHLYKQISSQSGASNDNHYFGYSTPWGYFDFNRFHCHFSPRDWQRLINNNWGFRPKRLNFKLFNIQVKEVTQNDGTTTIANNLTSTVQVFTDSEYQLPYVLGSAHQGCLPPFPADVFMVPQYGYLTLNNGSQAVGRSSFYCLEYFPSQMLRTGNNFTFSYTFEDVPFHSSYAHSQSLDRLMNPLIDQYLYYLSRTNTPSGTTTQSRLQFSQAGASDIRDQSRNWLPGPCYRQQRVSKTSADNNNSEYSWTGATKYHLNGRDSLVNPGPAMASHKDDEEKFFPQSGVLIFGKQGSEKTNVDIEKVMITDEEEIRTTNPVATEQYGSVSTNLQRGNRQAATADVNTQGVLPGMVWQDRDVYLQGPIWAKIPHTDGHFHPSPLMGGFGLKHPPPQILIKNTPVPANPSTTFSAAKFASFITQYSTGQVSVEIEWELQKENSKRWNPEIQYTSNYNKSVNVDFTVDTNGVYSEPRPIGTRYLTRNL
T1 sequence (P03135 203-735, chain 3 of 3): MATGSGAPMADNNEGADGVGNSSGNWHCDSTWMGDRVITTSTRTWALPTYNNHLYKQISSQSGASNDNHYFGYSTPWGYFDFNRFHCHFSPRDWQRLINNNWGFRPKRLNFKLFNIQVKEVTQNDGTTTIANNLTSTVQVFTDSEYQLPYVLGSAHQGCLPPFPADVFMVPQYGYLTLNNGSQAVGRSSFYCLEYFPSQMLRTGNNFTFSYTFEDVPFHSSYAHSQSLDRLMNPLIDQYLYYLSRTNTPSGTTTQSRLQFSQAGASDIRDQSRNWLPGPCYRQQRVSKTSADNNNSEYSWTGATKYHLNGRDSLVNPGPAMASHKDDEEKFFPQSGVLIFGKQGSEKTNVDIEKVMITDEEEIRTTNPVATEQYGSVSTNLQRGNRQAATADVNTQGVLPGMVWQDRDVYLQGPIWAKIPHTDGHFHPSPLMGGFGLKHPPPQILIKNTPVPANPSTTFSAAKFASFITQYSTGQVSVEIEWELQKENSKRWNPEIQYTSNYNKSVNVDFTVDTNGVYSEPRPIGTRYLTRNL
MEASURED_ENDPOINT: Residual activity [%] (%)
// return numeric value only (unit: %, not printed)

# example entries with known answers
# BINDER, UNIT_TEXT, Residual activity [%]
rows = [
    ("AAV-binding protein No. 117 (AVR8g + Leu376Pro) (receptor) MGSAGESDQITLPKNEVQLNAYVLQEPPKGETCTYDWQLITHPRDYSGEMEGEHSQILKLSNLTPGPYEFKVIVEGQNAHSEGYVNVTVEPEPRKNRPPIAIVSPQFQEISLPTTSTVIDGSQSTDDDKIVQYHWEELKGPLREEKISEDTAILKLSKLVPGNYTFRLTVVDSDGATDSTTANLTVNKAVDHHHHHH", "%", 76.7),
    ("AAV-binding protein No. 131 (AVR8g + Asn324Ser, Gly357Cys) (receptor) MGSAGESDQITLPKSEVQLNAYVLQEPPKGETCTYDWQLITHPRDYSCEMEGEHSQILKLSNLTPGLYEFKVIVEGQNAHSEGYVNVTVEPEPRKNRPPIAIVSPQFQEISLPTTSTVIDGSQSTDDDKIVQYHWEELKGPLREEKISEDTAILKLSKLVPGNYTFRLTVVDSDGATDSTTANLTVNKAVDHHHHHH", "%", 70.3),
]

Now consider the entry below.
Exercise: Form field: reported Residual activity [%] of AAV-binding protein No. 127 (AVR8g + Asp483Asn) (receptor) MGSAGESDQITLPKNEVQLNAYVLQEPPKGETCTYDWQLITHPRDYSGEMEGEHSQILKLSNLTPGLYEFKVIVEGQNAHSEGYVNVTVEPEPRKNRPPIAIVSPQFQEISLPTTSTVIDGSQSTDDDKIVQYHWEELKGPLREEKISEDTAILKLSKLVPGNYTFRLTVVDSNGATDSTTANLTVNKAVDHHHHHH
Solution: 23.3
